systemName: COX-1 (Ovis aries, UniProt P05979)
Construct: purchased Cayman Chemical Company
Sequence (P05979 25-600): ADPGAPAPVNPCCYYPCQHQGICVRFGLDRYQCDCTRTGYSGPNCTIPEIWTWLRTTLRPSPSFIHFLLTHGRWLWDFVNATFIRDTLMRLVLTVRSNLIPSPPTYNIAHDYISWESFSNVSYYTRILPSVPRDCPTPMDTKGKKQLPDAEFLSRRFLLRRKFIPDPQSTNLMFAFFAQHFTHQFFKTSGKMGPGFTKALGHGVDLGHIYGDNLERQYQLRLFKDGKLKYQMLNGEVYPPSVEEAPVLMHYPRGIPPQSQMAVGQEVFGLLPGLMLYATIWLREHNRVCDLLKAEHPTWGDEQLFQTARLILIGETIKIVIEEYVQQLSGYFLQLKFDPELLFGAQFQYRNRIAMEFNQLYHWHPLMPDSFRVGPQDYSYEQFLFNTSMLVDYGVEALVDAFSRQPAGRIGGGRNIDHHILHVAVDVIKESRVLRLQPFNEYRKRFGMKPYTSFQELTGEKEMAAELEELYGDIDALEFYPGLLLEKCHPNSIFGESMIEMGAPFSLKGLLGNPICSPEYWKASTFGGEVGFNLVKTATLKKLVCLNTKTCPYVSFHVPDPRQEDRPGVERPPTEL
assaySummary: COX colorimetric inhibitor screening assay (TMPD oxidation), COX-1
Type: biochemical
settings: read-out: IC50 (µM),(SD) COX-1
assayEndpoint: IC50 (µM)
API: value field is a number in µM; no unit string.

Cc1ccc(/C=N/NC(=O)CNC(=O)c2c(C)cc(C)nc2S)cc1	51.8
Cc1cc(C)c(C(=O)NCC(=O)N/N=C/c2ccccc2)c(S)n1	57.3

Here's the next entry for you.
## Input Hello, please tell me recorded IC50 for this one: CCOc1ccccc1/C=N/NC(=O)CNC(=O)c1c(C)cc(C)nc1S
## Output 72.8
